Assay: Dimensions (size, PDI) of DNPs co-assembled from IAJDs and Luc-mRNA by DLS
Assay type: physicochemical
Conditions: Table 17; DNPs used in vivo, IAJD 4 mg/mL, Luc-mRNA 0.10 mg/mL, acetate pH 4.0
Protocol: Dynamic Light Scattering (DLS) for the DNPs was performed in buffer with a Malvern Instruments particle sizer (Zetasizer Nano S, Malvern Instruments, UK) equipped with 4 mW He—Ne laser 633 nm and avalanche photodiode positioned at […] to the beam and temperature-controlled cuvette holder. Instrument parameters were determined automatically along with measurement times. Formulation of DNPs Containing mRNA-Luc: IAJDs were dissolved in ethanol with various initial concentrations (5-160 mg/mL). […]
QUANTITY: PDI
One number for each entry.

>  <COMPOUND>
CCCCCCCCCCCCCCCCOc1cc(COC(=O)CCCN2CCN(C)CC2)cc(OCCCCCCCCCCCCC)c1

>  <PDI>
0.301

$$$$
>  <COMPOUND>
CCCCCCCCCCCOc1cc(COC(=O)c2cc(OCCOCCOCCCC(=O)CCCN3CCCCC3)c(OCCOCCOCCOCc3ccccc3)c(OCCOCCOCCOC(=O)CCCN3CCCCC3)c2)cc(OCCCCCCCCCCC)c1

>  <PDI>
0.232

$$$$
>  <COMPOUND>
CCCCCCCCCCCOc1cc(COC(=O)c2cc(OCCOCCOCCCC(=O)CCCN3CCCCC3)c(OCCOCCOCCOCc3ccccc3)c(OCCOCCOCCOC(=O)CCCN3CCCCC3)c2)cc(OCC(CC)CCCC)c1 (centres unmarked)

>  <PDI>
0.279

$$$$
>  <COMPOUND>
CCCCCCCCCCCCCCCCCOc1cc(COC(=O)CCCN2CCN(C)CC2)cc(OCCCCCCCCCCCCCCC)c1

>  <PDI>
0.216

$$$$

Proceed to the following item.
Request: Look up PDI for this compound: `CCCCCCCCCCCCCCCOc1cc(COC(=O)CCCN2CCN(CCO)CC2)cc(OCCCCCCCCCCC)c1`
Result: 0.459

====

Assay: Dimensions (size, PDI) of DNPs co-assembled from IAJDs and Luc-mRNA by DLS
Type: physicochemical
Settings: Table 16; DNPs from IAJD 4 mg/mL and Luc-mRNA 0.10 mg/mL by injection in acetate buffer (10 mM, pH 4.0)
Exercise: state measured Size (d, nm) for each of the compounds provided.
Numbers only, in nm.

See these solved cases before continuing.
>  <COMPOUND>
CCCCCCCCCCCCCCCOc1cc(COC(=O)CCCN2CCN(C)CC2)cc(OCC(CC)CCCC)c1 (stereo not drawn)

>  <Size (d, nm)>
92

$$$$
>  <COMPOUND>
CCCCCCCCCCCCCCCOc1cc(COC(=O)CCCN2CCN(CCO)CC2)cc(OCCCCCCCCCCC)c1

>  <Size (d, nm)>
163

$$$$
>  <COMPOUND>
CCCCCCCCCCCOc1cc(COC(=O)c2cc(OCCOCCOCCCC(=O)CCCN3CCCCC3)c(OCCOCCOCCOCc3ccccc3)c(OCCOCCOCCOC(=O)CCCN3CCCCC3)c2)cc(OCC(CC)CCCC)c1 (stereo not drawn)

>  <Size (d, nm)>
83

$$$$
>  <COMPOUND>
CCCCCCCCCCCCCCCCCOc1cc(COC(=O)CCCN2CCN(C)CC2)cc(OCCCCCCCCCCC)c1

>  <Size (d, nm)>
158

$$$$
>  <COMPOUND>
CCCCCCCCCCCCCCCOc1cc(COC(=O)CCCN2CCN(C)CC2)cc(OCCCCCCCCCCCC)c1

>  <Size (d, nm)>
169

$$$$

Now turn to the next compound.
Request: What does the record list as Size (d, nm) for `CCCCCCCCCCCOc1cc(COC(=O)c2cc(OCCOCCOCCCC(=O)CCCN3CCCCC3)c(OCCOCCOCCOCc3ccccc3)c(OCCOCCOCCOC(=O)CCCN3CCCCC3)c2)cc(OCCCCCCCCCCC)c1` ?
Result: 99
